Every entry's value here was drawn from patent US20170119776A1.

Target: human macrophage elastase (HME/hMMP-12) (Homo sapiens)
Construct: 0.5 nM HME; purchased R&D Systems 917-MP
Sequence (P39900 106-470): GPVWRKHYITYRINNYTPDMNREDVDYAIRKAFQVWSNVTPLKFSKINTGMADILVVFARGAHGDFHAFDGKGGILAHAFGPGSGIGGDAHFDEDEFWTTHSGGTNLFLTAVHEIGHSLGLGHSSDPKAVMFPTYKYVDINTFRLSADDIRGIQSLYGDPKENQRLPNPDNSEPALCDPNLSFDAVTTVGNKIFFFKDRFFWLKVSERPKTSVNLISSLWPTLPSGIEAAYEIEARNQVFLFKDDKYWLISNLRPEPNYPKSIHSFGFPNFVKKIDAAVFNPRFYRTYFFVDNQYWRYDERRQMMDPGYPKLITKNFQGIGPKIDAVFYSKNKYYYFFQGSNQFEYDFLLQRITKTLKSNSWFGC
Assay: In vitro HME inhibition test (standard / high-sensitivity), without BSA
Format: biochemical
Details: absence of serum albumin (BSA)
Record form. Attribute: IC50. Fill in for each entry.
Answers are plain numbers, in pM.

O=C(O)[C@@H]1[C@@H](Cn2nnc3ccccc3c2=O)CC[C@H]1C(=O)c1ccc(-c2ccc(Cl)cc2)cc1 (single isomer, unassigned; enantiomer 2) [Comparative Example A-3] :: 18

Could you report IC50 for every entry in the following list?
1. CCCCCOc1ccc(C(=O)CC(CCn2nnc3ccccc3c2=O)C(=O)O)cc1 (single isomer, unassigned; enantiomer 1) [Comparative Example B-2]
2. O=C(O)[C@H]1[C@H](Cn2nnc3ccccc3c2=O)CC[C@@H]1C(=O)c1ccc(OCc2ccccc2)cc1 [Example 2]
3. O=C(O)[C@H]1[C@H](Cn2nnc3ccccc3c2=O)CC[C@@H]1C(=O)c1ccc(-c2ccc(Cl)cc2)cc1 (racemic)
4. CCCCCOc1ccc(C(=O)CC(CCn2nnc3ccccc3c2=O)C(=O)O)cc1 (single isomer, unassigned; enantiomer 2) [Comparative Example B-3]

output:
1600
71
43
160000
